Test: yeast display, Sf9 membrane polyspecificity reagent, FACS + sequencing; frameworks hold sequencing errors
Observed Property: polyreactivity (PSR sort gate)

Completed entries (count: 5):
QVQLVESGGGLVQAGGSLRLSCAASGNTFLYYAMGWYRQAPGKEMELVASINLSDGSTYYADSVKGRFTISRDNAKNTVYLQMNSLKPEDTAVYYCAAVYGGYTIYDYWGQGTQVTVSS: low polyreactivity
QVQLVESGGGLVQAGGSLRLSCAASGINYDYYTMGWYRQAPGKERELVASINFSGGSTYYADSVKGRFTISRDNAKNTVYLQMNSLKPEDTAVYYCAAVSVSFWGGGRYYYWGQGTQVTVSS: high polyreactivity
QVQLVESGGGLVQAGGSLRLSCAASGFTFYFYAMAWYRQAPGKERELVAAISSGGSTKYADSVKVRFTISRDNAKNTVYLQMKSLKPEDTAVYYCNRYYPGSGPLGYWGQGTQVTVSS: low polyreactivity
QVNLVESGGGLVQAGGSLRLSCAASGRIFRKYAMGWYRQAPGKVREFVAAITVSGDRTYYADSVKGRFTISRDNAKNNVYLQMNSLKPEDTAVYYCATKGYYYPYVTYDYWGQGTQVTVSS: low polyreactivity
QVQLVESGGGLVQAGGSLRLSCAASGITFLPYAMGWYRPEPGKERELVAAITRGGGSTYADSVKGRFTISRDNAKNTVYLQMNSLKPEDTAVYYCNAKGRGWTAQYDYWGQGTQVTVSS: low polyreactivity

Each sequence below has a reported value. Please supply its polyreactivity (PSR sort gate).
1. QVQLVESGGGLVQAGGSLRLSCAASGFTFSGNVMGWYRQAPGKERELVAGISRSGSSTSYADSVKGRFTISRDNAKNTVYLQMNSLKPEDTAVYYCNKVKRSYYYVDTDYWGQGTQVTVSS
2. QVQLVESGGGLVQAVRSLRLSSAASGLTFGRNAMGWYRQAPGKERELVAAISRSGGRTSYADSVKGRFTISRDNAKNTVYLQMNSLKPEDTAVYYCAARSDVYTHDYWGQGTQVTVSS

RESULT:
1. high polyreactivity
2. high polyreactivity

Hey, can you go through the list below and give me polyreactivity (PSR sort gate) for every item?
1. QVQLEESGAGLLQAGGSIRLSCAASGRTFWYYTMGWYRQAPGKEREVVAAISSGGRTNYADSVKGRFTISRDNAKNTVYLQMNSLKPEDTAVYDCAALYAKYYYRYDYWGQGTQVTVSS
2. QVQLQESGGGLVQAGGSLRLSCAASGSISNSAAMAWYRQAPGKERELVVSIGHGASSNYADSVKGRFTISRDNAKNTVYLQMNSLKPEDTAVYYCAAYPGFLDGFFYWGQSTQVTVSS
3. QVQLVESGGGLVQAGGSLRLSCAASGRTFYSYAMGWYIQAPGKERELVATINRGSGTNYADSVKGRFTISRDNAKNSVYLQMNSLKPEDSAVYSCAVDRRVLWYHMDYWGQGTKVTVSS

RESULT:
high polyreactivity
high polyreactivity
high polyreactivity

QUERY: Output measured polyreactivity (PSR sort gate) for this item: QVQLVESGGGLVQAGGSLRLSCAASGRIFAVNAMGWYRQAHGKERELVASISRRGGTTNYADSVKGRFTISRDNAKNTVYLKMNSLIPEDTAVYYCATRGSAWGRSYNYWGQGTQVTLSS
RESULT: high polyreactivity

###

Assay: yeast display, Sf9 membrane polyspecificity reagent, FACS + sequencing; frameworks hold sequencing errors
Observed Property: polyreactivity (PSR sort gate)

QVQLVESGGGVVQAGGSLRLSCAASGSTFRPYAMGWYRQAPGKERELVAAITFNGDTYADSVKGRFTISRDNAKNTVYLQMNSLKPEDTAVYYCAARNWYYYLRPWTSVGGYYWGQGTQVNVSS: high polyreactivity
QVQLVESGGGLVQAGGSLRLSCAASGRIFLWYAMGWYRQAPGKERELVAVITGGGSTNYADSVKGRFTISRDNAKNTVYLQMNSLKPEDTAVYYCATEGYGHGGETDGGVYSDLGYWGQGTQVTVSS: low polyreactivity
QDQHVESGGGLVQAGGSLRLSCAASGILYNYYAMGWYRQAHGKERELVAAISASGGSTYYADSVKGRFTISRDNAKNTVYLQMYSLKPEDTAVYYCNAAVLYRQYGRGDYLGQGTQVTVSS: low polyreactivity
QVQLVESGGGLVQAGGSLRLSCAASGRIFLSYAMGWYRQAPGKERELVAAIRSTGTRTYYADSVKGRFTISRDNAKNTVYLQMNSLKPEDTAVYYCAVGDYGLWSYDYWGQGTQVTVSS: low polyreactivity
QVQLVESGGGLVQAGGSLRLSCAASGIIFTRNAKGWSRQAPGKERELVAAISRSGGRTSYADSVKGRFTISRDNAKNTVYLHMNSLKPEDTEVYYCYARTTSGWGQGTQVTVSS: high polyreactivity

For every record below, what is its polyreactivity (PSR sort gate)?
1. QVQLVESGGGLVQAGGSLRLSCAASGITFSVNAMGWYRQAPGKEREFVAAISSSGGSTYYADSLKGRFTISRDNAKNTVYLQMNSLKPEDTAVYYCAASGRVQRQHYRPYPYGYWGQGTQVTVSS
2. QVQLVESGGGLVQAGGSLRLSCAASGRTFQRYTMGWYRPAPGKETELVAVITNGGTRTYYADYVKGRLTISRDYAKNTVYLQMNSLKPEYTAVYYCAARVRYTANYDYWGQGTQVTVSS
3. QVQLVESGGGLVQAGGSLRLSCAASGRIFVANAMGWYRQAPGKERELVAVISGSGGRTYYADSVKGRFTISRDNAKNTVYLQMNSLKPEDTAVYYCAAQKWQQGITAYEYWGQGTQVTVSS
4. QVQLVESVGRLVQAGGSLRLSCAASGRIIYWNAKGWYRQAPGKERELVAGITTGGSTYYADSVKGRFTISRDNAKNTVYLQMNSLKPEDTAVYYCAARPFIRQRYGYWGKGTQVTVSS
5. QVQLVESGGGLVQAGGSLRLSCAASGSTFYGYAMGWYRQAPGKERELVAVINYSGGTTSYADSVKGRFTISRDNAKNTVYLQMNSLKPEDTAVYYCAARRRWAILRYRGNYDYWGQGTQVTVSS

RESULT:
1. high polyreactivity
2. high polyreactivity
3. high polyreactivity
4. high polyreactivity
5. high polyreactivity

QUERY: Name the recorded polyreactivity (PSR sort gate) of the sequence listed here: QVQLGESGGGLVQAGGTLRVSCAPSGITFYGYAMGWYRQAPGKERELVAAINRGGTGTYYADSVKGRFTISRDNAKNTVYLQMNSLKPEDTAVYYCNKAGYPIADPTAGKRQFDNWGHGTQVTVSS
RESULT: low polyreactivity
